- Test system: 7G8
- METHOD DESCRIPTION: qHTS profiling for inhibitors of Plasmodium falciparum proliferation (AID 504749); note: nearly all actives have a fitted effect of over 60% in size
- TEST PARAMETERS: P. falciparum in erythrocytes, SYBR Green DNA, 72 h; series mostly up to 12.8 µM
Records with an inconclusive call do not appear. Active and inactive are the calls of the source. Calls come from the whole dose curve; as a rule, active = well fitted inhibition curve with a large enough effect; inconclusive = small, poorly fitted or top-dose-only effect; inactive = flat fitted curve, though single readings scatter.
Lab note: assign the record to one of active, inactive

# lookup: test call for C[C@]12CC[C@H](O)C[C@H]1CCC1C2CC[C@]2(C)[C@@H](c3ccc(=O)oc3)C[C@H]3O[C@]132 (some centres not stated)
active

I'd appreciate the recorded outcome for C[N+]1([O-])[C@@H]2CC(OC(=O)[C@@H](CO)c3ccccc3)C[C@@H]1[C@H]1O[C@H]12 (some centres not stated) from this test.
inactive

Outcome logged for CN(C)C(=O)Oc1cc(OC(=O)N(C)C)cc([C@@H](O)CNC(C)(C)C)c1 in this assay:
inactive

Write down the call the test reported for this compound. Item: C=CC1CN2CCC1CC2C(OC(=O)OCC)c1ccnc2ccc(OC)cc12 (configuration not stated)
active

Assay result, entry CC(=O)OCC(=O)[C@@H]1CC[C@H]2[C@H]3CC[C@H]4C[C@@H](O)CC[C@]4(C)[C@@H]3C(=O)C[C@@]12C — outcome?
inactive

Recorded call for CCC(C)C1O[C@]2(C=CC1C)CC1CC(C/C=C(\C)[C@H](OC3CC(OC)C(O[C@H]4CC(OC)[C@@H](O)C(C)O4)C(C)O3)[C@@H](C)/C=C/C=C3\COC4C(O)C(C)=C[C@H](C(=O)O1)[C@@]34O)O2 (some centres not stated) ?
active

For CNC[C@H](O)c1ccc(O)cc1 , which call appears in the assay record?
inactive

Test call for this compound, please: CNc1ccc(C(=O)CC(O)CCC(C)C2OC(=O)CC(O)CC(=O)CC(O)CC(O)CC(O)CC(O)CC3(O)CC(O)C(C(=O)OC)C(CC(O[C@@H]4OC(C)C(O)C(N)C4O)/C=C/C=C/C=C/C=C/C=C/C=C/C=C/C2C)O3)cc1 (some centres not stated)
inactive

Field: outcome | Entry: C[C@H]1CN(C2CCC(C#N)(c3ccc(F)cc3)CC2)CC[C@@]1(C(=O)O)c1ccccc1 (some centres not stated)
inactive

Any idea what this test logged for Clc1ccc([C@@H](OCCN2CCCCC2)c2ccccc2)cc1 ?
active

Identify the outcome logged in this assay for the compound shown: CC(C)N(CC[C@@](C(N)=O)(c1ccccc1)c1ccccn1)C(C)C
inactive

Called result for O=c1ccc2cc(O[C@H]3O[C@@H](CO)[C@@H](O)[C@@H](O)[C@@H]3O)c(O)cc2o1
inactive

I'd appreciate the recorded outcome for CC1=C2[C@@H]3OC(=O)[C@@H](C)[C@@H]3CC[C@]2(C)C=CC1=O from this test.
inactive

What did this assay record as the result for [Hg+][c]1ccccc1 ?
active

Which result was noted for this compound in the test: COc1cc(N)c(Cl)cc1C(=O)N[C@@H]1CN2CCC1CC2
inactive

Can you look up the reported call for CC(C)(O)C1C2OC(=O)C1[C@]1(O)C[C@H]3O[C@]34C(=O)O[C@H]2[C@]14C (some centres not stated) (tested in a mixture with another compound) for me?
inactive

Would you mind telling me which call this test gave O=C1C=C2C=CC3C[C@@]2(O1)C1CCCCN31 (some centres not stated) ?
active

----------
- System: PAD
- METHOD DESCRIPTION: qHTS profiling for inhibitors of Plasmodium falciparum proliferation (AID 504749); note: nearly all actives have a fitted effect of over 60% in size
- TEST PARAMETERS: P. falciparum in erythrocytes, SYBR Green DNA, 72 h; series mostly up to 28.7 µM
Results filed as inconclusive are left out. The source made the active and inactive calls. Calls follow the shape of the dose curve; as a rule, active = well fitted inhibition curve with a large enough effect; inconclusive = small, poorly fitted or top-dose-only effect; inactive = flat fitted curve, though single readings scatter.
Hi there, use one of these labels in your reply, thanks! YES (active), NO (inactive)

What did this assay record as the result for CN(C)[C@@H]1C(=O)C(C(N)=O)=C(O)[C@]2(O)C(=O)C3=C(O)c4c(O)ccc(Cl)c4[C@](C)(O)[C@H]3C[C@@H]12 ?
NO

What call does the record list for O=[As]O[As]=O (stereo not drawn) ?
YES

Each compound tested received a call. Report the one for C[C@]12CC[C@H]3[C@@H](CCC4=CC(=O)CC[C@@]43C)[C@@H]1CC[C@@H]2O .
NO

State the result this test recorded for C#CCN(C)[C@@H](C)Cc1ccccc1 .
NO

GET /call?item= CC[C@@]1(c2ccc(N)cc2)CCC(=O)NC1=O returns the recorded outcome of this test.
NO

Fill in: this test's call for CNC[C@H](O)c1ccc(O)cc1 is ___
NO

Please share the test call associated with COc1ccc2c(c1OC)CN1CCc3cc4c(cc3[C@H]1C2)OCO4 .
YES

Tell me the recorded outcome of this test for C[C@H]1CN(C2CCC(C#N)(c3ccc(F)cc3)CC2)CC[C@@]1(C(=O)O)c1ccccc1 (stereo partly drawn) .
NO

I would be grateful if you could indicate the recorded call for COc1cc2c(cc1OC)[C@@]13CCN4CC5=CCOC6CC(=O)N2C1[C@H]6[C@@H]5C[C@@H]43 (stereo partly drawn) .
NO

Lab log entry: CO[C@@H](COC(N)=O)C1=C(N2CC2)C(=O)C(C)=C(N2CC2)C1=O — outcome as called in the assay?
YES

For CC(C)c1c(CN(C)[C@@H](C)Cc2ccccc2)n(C)n(-c2ccccc2)c1=O , what call appears in the results of this test?
NO

Please indicate how the test categorized CC(C)(O)C1C2OC(=O)C1[C@]1(O)C[C@H]3O[C@]34C(=O)O[C@H]2[C@]14C (stereo partly drawn) (tested in a mixture with another compound) .
NO

Recorded call for C[C@]12CC[C@H](OS(=O)(=O)O)CC1=CCC1C2CC[C@]2(C)C(=O)CC[C@@H]12 (stereo partly drawn) ?
NO

----------
- SUBJECT OF TEST: Glucocorticoid receptor (Homo sapiens) (UniProt P04150)
- Sequence (P04150 whole entry, looked up): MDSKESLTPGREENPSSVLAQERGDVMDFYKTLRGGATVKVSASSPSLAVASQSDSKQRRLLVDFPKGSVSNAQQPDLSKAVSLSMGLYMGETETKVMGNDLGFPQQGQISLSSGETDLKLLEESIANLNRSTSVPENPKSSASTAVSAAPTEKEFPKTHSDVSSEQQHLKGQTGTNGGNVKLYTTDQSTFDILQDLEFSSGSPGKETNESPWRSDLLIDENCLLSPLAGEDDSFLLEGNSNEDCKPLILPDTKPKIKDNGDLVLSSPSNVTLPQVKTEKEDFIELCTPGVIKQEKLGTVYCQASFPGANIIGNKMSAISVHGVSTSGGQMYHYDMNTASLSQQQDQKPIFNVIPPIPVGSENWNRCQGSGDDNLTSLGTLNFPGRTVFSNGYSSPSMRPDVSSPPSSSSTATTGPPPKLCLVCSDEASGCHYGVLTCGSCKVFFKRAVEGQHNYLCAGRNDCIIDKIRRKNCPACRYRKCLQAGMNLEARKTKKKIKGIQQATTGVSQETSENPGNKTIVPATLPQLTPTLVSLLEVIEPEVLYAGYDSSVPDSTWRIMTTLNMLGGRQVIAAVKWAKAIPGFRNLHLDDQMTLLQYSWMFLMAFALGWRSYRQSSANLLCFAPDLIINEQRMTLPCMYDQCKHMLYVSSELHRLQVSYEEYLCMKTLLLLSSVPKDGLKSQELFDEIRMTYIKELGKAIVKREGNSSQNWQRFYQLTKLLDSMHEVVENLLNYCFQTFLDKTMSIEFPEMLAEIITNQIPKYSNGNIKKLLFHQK
- METHOD DESCRIPTION: GR-GFP Redistribution (AID 450); note: potency is the fitted concentration of half-maximal effect
- TEST PARAMETERS: U2OS GR-GFP nuclear translocation, laser cytometry, 2 h
Calls of active or inactive are those of the source.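 Rule for the calls: active = compounds whose dose series gives a full or clear partial fitted curve of increased nuclear translocation; inconclusive = weak partial curve or effect only at the top dose; inactive = no dose-dependent translocation response.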
MEASURE: Potency

Which Potency value belongs to CC(=O)N[C@@H]1CCSC1=O ?
> 20.6 µM (inactive)

Return reported Potency; argument: CN(C)C(=O)Oc1cc(OC(=O)N(C)C)cc([C@@H](O)CNC(C)(C)C)c1
> 20.6 µM (inactive)

# input compound: C[C@H]1C(=O)O[C@@H]2CCN3CC=C(COC(=O)[C@@](C)(O)[C@@]1(C)O)[C@H]23 ; wanted: its Potency
> 20.6 µM (inactive)

# Potency lookup, item C[N+]1([O-])[C@@H]2CC[C@H]1CC(OC(=O)[C@@H](CO)c1ccccc1)C2 (some centres undefined)
> 20.6 µM (inactive)

I would be grateful if you could share the reported Potency for CC(=O)O[C@H]1C[C@@H](O[C@@H]2[C@H](C)O[C@H](O[C@@H]3[C@H](C)O[C@H](O[C@@H]4CC[C@@]5(C)[C@@H](CC[C@]6(C)[C@]5(C)C[C@H](O)[C@]5(C)[C@@H](C7=CC(=O)OC7)CC[C@@]56O)C4)C[C@@H]3O)C[C@@H]2O)O[C@@H](C)[C@H]1O[C@H]1O[C@@H](CO)[C@@H](O)[C@@H](O)[C@@H]1O .
> 20.6 µM (inactive)

State the recorded Potency for this entry: CN1CCc2cc3c(cc2[C@@H]1O)OCO3
> 20.6 µM (inactive)

# lookup: Potency of CN1C(=O)CCS(=O)(=O)[C@@H]1c1ccc(Cl)cc1
> 20.6 µM (inactive)

Endpoint output: Potency of COC1=CC(=O)O[C@@H](/C=C\c2ccccc2)C1 . Value?
> 20.6 µM (inactive)

Which Potency reading was recorded for the compound CCCN(C/C=C\I)[C@@H]1CCc2ccc(O)cc2C1 ?
> 46 µM (inactive)

Using the record for NNCc1cccc(O)c1 , report its Potency.
> 46 µM (inactive)

Give the measured Potency of CC1=C2[C@@H]3OC(=O)[C@@H](C)[C@@H]3CC[C@]2(C)C=CC1=O .
> 20.6 µM (inactive)

Please look up its Potency: COc1cc2c(cc1O)[C@H]1Cc3ccc(OC)c(O)c3CN1CC2
> 20.6 µM (inactive)

For C=C[C@]12CN(C)[C@H]3C1[C@@]1(C(=O)Nc4ccccc41)[C@H]1C[C@H]2[C@H]3CO1 , what is its reported Potency?
> 20.6 µM (inactive)

Data request, read-out Potency, for Clc1ccccc1-c1cncnc1NCCc1cnc[nH]1
> 46 µM (inactive)

Which value of Potency has been reported for Nc1c(C(=O)NCc2ccco2)c2nc3ccccc3nc2n1Cc1ccc(F)cc1 in the records?
> 20.6 µM (inactive)

Could you tell me which Potency is on file for Cc1ccccc1-c1cncnc1NCCc1cnc[nH]1 ?
> 46 µM (inactive)

Need Potency of CC[C@H](CO)NC(=O)[C@H]1C=C2c3cccc4[nH]cc(c34)C[C@@H]2N(C)C1 , thanks.
> 20.6 µM (inactive)

Data request, read-out Potency, for CN(C)[C@@H]1C(=O)C(C(N)=O)=C(O)[C@]2(O)C(=O)C3=C(O)c4c(O)cccc4[C@@](C)(O)[C@@H]3C[C@@H]12
> 46 µM (inactive)

If you can, please state the reported Potency value of CCN[C@]1(c2cccs2)CCCCC1=O .
> 20.6 µM (inactive)
